TGT: HLA-A*0206 (human)
MEASUREMENT NOTES: inhibition of 125I probe peptide binding to purified HLA
CONDITION NOTES: remark: other sources report otherwise
pIC50: −log10 of the molar value.
Assign class by pIC50: not lower than 6 means yes; lower than 6 means no.

Prompt: Please check the record LLARAASLSV [Peptide 63.0031 … (PAP.7.V10)] and state if its pIC50 is at or above 6.
Completion: yes

Prompt: Please check the record LLARAASLSL [Peptide 20.0203 … (PAP.7)] and state if its pIC50 is at or above 6.
Completion: no

Prompt: Please check the record VLAKELKFVV [Peptide 63.0034 … (PAP.30.V10)] and state if its pIC50 is at or above 6.
Completion: yes

Prompt: Please check the record AASLSLGFLFL [Peptide 63.0137 … (PAP.11)] and state if its pIC50 is at or above 6.
Completion: yes

Prompt: Please check the record LLLARAASV [Peptide 60.0201 … (PAP.6.V9)] and state if its pIC50 is at or above 6.
Completion: yes

Prompt: Please check the record TLMSAMTNLA [Peptide 20.0312 … (PAP.112)] and state if its pIC50 is at or above 6.
Completion: no

Prompt: Please check the record FLNESYKHEQV [Peptide 1419.55 … (PAP.92)] and state if its pIC50 is at or above 6.
Completion: yes
